# inhibition at 10 µM values compiled below
Target: hERG (Homo sapiens, UniProt Q12809)
Sequence (Q12809 whole entry): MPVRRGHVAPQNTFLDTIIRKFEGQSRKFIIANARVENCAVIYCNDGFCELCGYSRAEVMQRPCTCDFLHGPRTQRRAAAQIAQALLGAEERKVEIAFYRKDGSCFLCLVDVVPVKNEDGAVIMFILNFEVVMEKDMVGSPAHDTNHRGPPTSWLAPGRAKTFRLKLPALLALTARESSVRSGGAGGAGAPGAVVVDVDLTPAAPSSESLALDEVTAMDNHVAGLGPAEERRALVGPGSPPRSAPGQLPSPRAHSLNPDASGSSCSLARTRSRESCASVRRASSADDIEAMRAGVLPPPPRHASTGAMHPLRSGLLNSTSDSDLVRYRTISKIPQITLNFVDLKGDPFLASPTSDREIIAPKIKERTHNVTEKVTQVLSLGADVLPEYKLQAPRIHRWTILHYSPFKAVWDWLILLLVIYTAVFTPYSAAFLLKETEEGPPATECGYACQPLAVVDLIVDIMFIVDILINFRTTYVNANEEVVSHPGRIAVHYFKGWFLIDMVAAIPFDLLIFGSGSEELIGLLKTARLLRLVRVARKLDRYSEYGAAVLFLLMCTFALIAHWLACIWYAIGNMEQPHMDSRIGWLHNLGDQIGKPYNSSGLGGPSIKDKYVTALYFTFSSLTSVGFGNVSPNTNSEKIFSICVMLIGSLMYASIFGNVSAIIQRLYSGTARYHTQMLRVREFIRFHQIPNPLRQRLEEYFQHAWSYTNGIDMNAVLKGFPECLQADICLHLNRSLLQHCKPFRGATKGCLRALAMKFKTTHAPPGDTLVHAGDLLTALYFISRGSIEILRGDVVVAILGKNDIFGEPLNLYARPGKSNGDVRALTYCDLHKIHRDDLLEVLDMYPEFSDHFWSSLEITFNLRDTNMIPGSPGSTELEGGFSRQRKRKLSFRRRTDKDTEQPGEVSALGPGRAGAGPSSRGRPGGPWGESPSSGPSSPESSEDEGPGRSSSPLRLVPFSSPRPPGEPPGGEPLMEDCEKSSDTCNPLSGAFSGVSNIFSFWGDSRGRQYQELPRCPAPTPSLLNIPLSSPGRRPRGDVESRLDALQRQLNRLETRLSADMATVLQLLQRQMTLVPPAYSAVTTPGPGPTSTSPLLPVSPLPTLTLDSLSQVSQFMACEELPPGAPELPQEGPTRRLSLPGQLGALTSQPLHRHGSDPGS
Assay: Whole-cell patch-clamp, CHO cells transiently transfected with hERG
Details: human, pH 7.4, % of hERG inhibition, tail currents at −100 mV

query-smiles | inhibition at 10 µM
Oc1ccc2ccccc2c1CNCCc1c[nH]c2ccccc12 | 30 to 40%
CC(C)(C)CNC(=O)Nc1ccc2c(c1)CCN2Cc1ccc(F)cc1 | 30 to 40%

====

Assay: Human plasma stability
Type: in vitro ADME
experimental-readout: recovery at 120 min

compound | result
O=C(NCc1ccccc1)[C@H](Cc1c[nH]c2ccccc12)NCc1ccc(Oc2ccccc2)cc1 [CPK18] | ≥ 80%
O=S(=O)(Nc1ccc2c(c1)CCN2Cc1ccc(C(F)(F)F)cc1C(F)(F)F)C1CCCCC1 [CPK20] | ≥ 80%
